# system under test: Human LPA1 (Homo sapiens)
# assay explanation: LPA1 calcium flux assay
# condition description: human LPA1 expressing CHO cells; stimulated with 10 nM LPA; read-out: Ca Flux LPA1 IC50
# Procedure: Establishment of a CHO Cell Line Stably Expressing Human LPA1 A 1.1 kb cDNA encoding the human LPA1 receptor is cloned from human lung. […] Human LPA1 or LPA3 expressing CHO cells were seeded at 20,000-45,000 cells per well in a 96-well poly-D-lysine coated plate one or two days before the assay. […] Cells were then stimulated by the addition of 10 nM LPA and intracellular Ca^2+ measured using the Flexstation 3 (Molecular Devices). […]
Entries and their IC50

Known results for compounds:
>  <line notation>
Cc1noc(-c2ccc(-c3ccc(C4(C(=O)O)COC4)cc3)cc2)c1NC(=O)O[C@H](C)c1ccccc1

>  <system under test>
Human LPA1 (Homo sapiens)

>  <IC50>
50 to 500 nM

$$$$
>  <line notation>
Cc1nsc(-c2ccc(-c3ccc(C4(C(=O)O)COC4)cc3)cc2)c1NC(=O)O[C@H](C)c1ccccc1

>  <system under test>
Human LPA1 (Homo sapiens)

>  <IC50>
50 to 500 nM

$$$$
>  <line notation>
Cc1noc(-c2ccc(-c3ccc(CC(=O)O)c4ccccc34)cc2)c1NC(=O)O[C@H](C)c1ccccc1Cl

>  <system under test>
Human LPA1 (Homo sapiens)

>  <IC50>
50 to 500 nM

$$$$

Attention now turns to another entry.
Query: Provide measured IC50 value, entry: "C[C@@H](OC(=O)Nc1ccn(-c2ccc(-c3ccc(C4(C(=O)O)CC4)cc3)cc2)n1)c1ccccc1Cl"
Response: > 500 nM

====

# system under test: Human LPA3 (Homo sapiens, UniProt Q9UBY5)
# Construct: The full-length cDNA fragment for human LPA3 is obtained by PCR from the vector
# Sequence (Q9UBY5 whole entry, the tested form may be a part): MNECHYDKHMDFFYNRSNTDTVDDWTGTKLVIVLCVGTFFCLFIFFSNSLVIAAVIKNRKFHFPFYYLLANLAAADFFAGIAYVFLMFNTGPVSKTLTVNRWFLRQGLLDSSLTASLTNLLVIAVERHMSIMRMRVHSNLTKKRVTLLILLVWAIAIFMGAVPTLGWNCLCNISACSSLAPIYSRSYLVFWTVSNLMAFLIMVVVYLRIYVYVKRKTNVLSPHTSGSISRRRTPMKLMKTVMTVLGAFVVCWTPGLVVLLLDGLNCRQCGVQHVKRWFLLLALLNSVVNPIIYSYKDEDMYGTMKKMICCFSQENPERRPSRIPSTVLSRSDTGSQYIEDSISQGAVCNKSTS
# assay explanation: LPA3 calcium flux assay
# condition description: human LPA3 expressing CHO cells; stimulated with 10 nM LPA; read-out: Ca Flux LPA3 IC50
Entries and their IC50

Known results for compounds:
>  <compound>
C[C@@H](OC(=O)Nc1c(-c2ccc(-c3ccc(C4(C(=O)O)CC4)cc3)cc2)oc2ncccc12)c1ccccc1 [Compound 152]

>  <system under test>
Human LPA3 (Homo sapiens, UniProt Q9UBY5)

>  <assay readout>
IC50

>  <assay value>
50 to 500 nM

$$$$
>  <compound>
C[C@@H](OC(=O)Nc1c(-c2ccc(-c3ccc(C4(C(=O)O)CC4)cc3)cc2)cnn1C)c1ccccc1 [Compound 170]

>  <system under test>
Human LPA3 (Homo sapiens, UniProt Q9UBY5)

>  <assay readout>
IC50

>  <assay value>
> 500 nM

$$$$
>  <compound>
C[C@@H](OC(=O)Nc1c(-c2ccc(-c3ccc(C4(C(=O)O)CC4)cc3)cc2)oc2cnccc12)c1ccccc1Cl [Compound 149]

>  <system under test>
Human LPA3 (Homo sapiens, UniProt Q9UBY5)

>  <assay readout>
IC50

>  <assay value>
> 500 nM

$$$$
>  <compound>
Cc1noc(-c2ccc(-c3ccc(C4(C(=O)O)CC4)cc3)cc2)c1NC(=O)O[C@H](C)c1ccccc1 [Compound 74]

>  <system under test>
Human LPA3 (Homo sapiens, UniProt Q9UBY5)

>  <assay readout>
IC50

>  <assay value>
> 500 nM

$$$$
>  <compound>
Cc1nnn(-c2ccc(-c3ccc(C4(C(=O)O)CC4)cc3)cc2)c1NC(=O)O[C@H](C)c1ccccc1 [Compound 65]

>  <system under test>
Human LPA3 (Homo sapiens, UniProt Q9UBY5)

>  <assay readout>
IC50

>  <assay value>
> 500 nM

$$$$

Query: Provide measured IC50 value, entry: Cc1noc(-c2ccc(-c3ccc(CC(=O)O)c4ccccc34)cc2)c1NC(=O)O[C@H](C)c1ccccc1Cl [Compound 6]
Response: 50 to 500 nM

Query: Provide measured IC50 value, entry: C[C@@H](OC(=O)Nc1c(-c2ccc(-c3ccc(C4(C(=O)O)CC4)cc3)cc2)cnn1C)c1ccccc1Cl [Compound 171]
Response: > 500 nM

====

Entries and their EC50
# system under test: Human LPA1 (Homo sapiens)
# assay explanation: Beta-Arrestin based assay for human LPA1R antagonists (PathHunter)
# condition description: CHO cells stably expressing ProLink tagged human LPA1R; agonist LPA 0.5 micromolar

Known results for compounds:
>  <line notation>
Cc1nsc(-c2ccc(-c3ccc(C4(C(=O)O)CC4)cc3)cc2)c1NC(=O)O[C@H](C)C1=C(Cl)CCCC1

>  <EC50>
< 50 nM

$$$$
>  <line notation>
CN(CC(=O)N1CCN(c2ccc(CC(=O)O)cc2)CC1)C(=O)OCc1ccccc1

>  <EC50>
> 500 nM

$$$$
>  <line notation>
Cc1cccc2c(NC(=O)O[C@H](C)c3ccccc3Cl)c(-c3ccc(-c4ccc(C5(C(=O)O)CC5)cc4)cc3)oc12

>  <EC50>
> 500 nM

$$$$
>  <line notation>
C[C@@H](OC(=O)Nc1c(-c2c(F)cc(-c3ccc(C4(C(=O)O)CC4)cc3)cc2F)cnn1C)c1ccccc1

>  <EC50>
< 50 nM

$$$$

Attention now turns to another entry.
Query: Provide measured EC50 value, entry: "C[C@@H](OC(=O)Nc1nsnc1-c1ccc(-c2ccc(C3(C(=O)O)CC3)cc2)cc1)c1ccccc1"
Response: 50 to 500 nM

====

Entries and their pIC50
# system under test: Human LPA1 (Homo sapiens, UniProt Q92633)
# Sequence (Q92633 whole entry): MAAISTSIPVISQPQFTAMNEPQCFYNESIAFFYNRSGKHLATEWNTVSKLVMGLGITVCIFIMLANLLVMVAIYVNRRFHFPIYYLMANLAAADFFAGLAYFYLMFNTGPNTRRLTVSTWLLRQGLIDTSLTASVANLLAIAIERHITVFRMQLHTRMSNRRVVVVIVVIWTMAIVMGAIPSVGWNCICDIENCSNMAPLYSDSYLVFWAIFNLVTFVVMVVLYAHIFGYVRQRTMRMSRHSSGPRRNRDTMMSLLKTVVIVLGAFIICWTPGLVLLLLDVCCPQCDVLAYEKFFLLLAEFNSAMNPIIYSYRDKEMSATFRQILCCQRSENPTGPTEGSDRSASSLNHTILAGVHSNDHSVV
# assay explanation: LPA1 calcium flux assay
# condition description: human LPA1 expressing CHO cells; stimulated with 10 nM LPA; read-out: Ca Flux LPA1 IC50
pIC50: −log10 of the molar value.

Known results for compounds:
>  <compound>
C[C@@H](OC(=O)Nc1c(-c2ccc(-c3ccc(C4(C(=O)O)CC4)cc3)cc2)cnn1C)c1ccccc1 [Compound 170]

>  <system under test>
Human LPA1 (Homo sapiens, UniProt Q92633)

>  <assay readout>
pIC50

>  <assay value>
> 7.30

$$$$
>  <compound>
C[C@@H](OC(=O)Nc1ocnc1-c1ccc(-c2ccc(C3(C(=O)O)CC3)cc2)cc1)c1ccccc1Cl [Compound 147]

>  <system under test>
Human LPA1 (Homo sapiens, UniProt Q92633)

>  <assay readout>
pIC50

>  <assay value>
6.30 to 7.30

$$$$
>  <compound>
Cc1noc(-c2ccc(-c3ccc(C4(C(=O)O)CCOCC4)cc3)cc2)c1NC(=O)O[C@H](C)c1ccccc1 [Compound 242]

>  <system under test>
Human LPA1 (Homo sapiens, UniProt Q92633)

>  <assay readout>
pIC50

>  <assay value>
6.30 to 7.30

$$$$

Attention now turns to another entry.
Query: Provide measured pIC50 value, entry: C[C@@H](OC(=O)Nc1c(-c2ccc(-c3ccc(C4(C(=O)O)CC4)cc3)cc2)cnn1C)c1ccccc1Cl [Compound 171]
Response: > 7.30

====

# system under test: Human LPA1 (Homo sapiens, UniProt Q92633)
# assay explanation: LPA1 calcium flux assay
# condition description: human LPA1 expressing CHO cells; stimulated with 10 nM LPA; read-out: Ca Flux LPA1 IC50
pIC50: −log10 of the molar value.
assay readout: pIC50

>  <compound>
Cc1noc(-c2ccc(-c3ccc(CC(=O)O)cc3)cc2)c1NS(=O)(=O)c1ccccc1 [Compound 19]

>  <system under test>
Human LPA1 (Homo sapiens, UniProt Q92633)

>  <pIC50>
< 6.30

$$$$
>  <compound>
Cc1noc(-c2ccc(-c3ccc(C(C(=O)O)c4ccccc4)cc3)cc2)c1NC(=O)O[C@H](C)c1ccccc1Cl (single isomer, unassigned) [Compound 14]

>  <system under test>
Human LPA1 (Homo sapiens, UniProt Q92633)

>  <pIC50>
> 7.30

$$$$
>  <compound>
C[C@@H](OC(=O)Nc1c(-c2ccc(-c3ccc(C4(C(=O)O)CC4)cc3)cc2)oc2ncccc12)c1ccccc1Cl [Compound 153]

>  <system under test>
Human LPA1 (Homo sapiens, UniProt Q92633)

>  <pIC50>
< 6.30

$$$$
>  <compound>
C[C@@H](OC(=O)Nc1c(-c2ccc(-c3ccc(C4(C(=O)O)CC4)cc3)cc2)oc2cc(F)ccc12)c1ccccc1Cl [Compound 61]

>  <system under test>
Human LPA1 (Homo sapiens, UniProt Q92633)

>  <pIC50>
< 6.30

$$$$
>  <compound>
Cc1nsc(-c2ccc(-c3ccc(C(C(=O)O)c4ccccc4)cc3)cc2)c1NC(=O)O[C@H](C)c1ccccc1Cl (single isomer, unassigned) [Compound 71]

>  <system under test>
Human LPA1 (Homo sapiens, UniProt Q92633)

>  <pIC50>
< 6.30

$$$$
>  <compound>
Cc1nsc(-c2ccc(-c3ccc(C4(C(=O)O)CC4)cc3)cc2)c1NC(=O)OCc1ccccc1 [Compound 45]

>  <system under test>
Human LPA1 (Homo sapiens, UniProt Q92633)

>  <pIC50>
> 7.30

$$$$

Attention now turns to another entry.
Query: Specify pIC50 for Cc1nsc(C#Cc2ccc(C3(C(=O)O)CC3)cc2)c1NC(=O)O[C@H](C)c1ccccc1 [Compound 82] , system Human LPA1 (Homo sapiens, UniProt Q92633).
Response: < 6.30
